# credit: PubChem BioAssay AID1159580

assay: chemical genetic growth profiling, strain panel (AID 1159580);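 also: tested at 20 µM; growth read once vehicle control cultures reached saturation at 30 °C; lower values mean less growth of the strain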; conditions: S. cerevisiae deletion strains, growth OD, locus YDR392W, strain spt3
About 2,000 (36%) of roughly 5,500 compounds were called active. Roughly 18% stayed inconclusive and do not appear here. Rule as the data show it: active = normalized growth mostly below about 0.91 (no sharp cut-off); inconclusive = no clear call, values can overlap the other calls; inactive = mostly above about 0.92. Some of the results follow.
Outcome codes: active, inactive

- COc1ccc(C(c2ccc(OC)cc2)C(Cl)(Cl)Cl)cc1: inactive
- COc1ccc(C(CN(C)C)C2(O)CCCCC2)cc1 (stereo unspecified): inactive
- O=S(=O)(O)CCS: inactive
- Cc1ccc(C(=O)Nc2ccc(S(=O)(=O)O)c3cc(S(=O)(=O)O)cc(S(=O)(=O)O)c23)cc1NC(=O)c1cccc(NC(=O)Nc2cccc(C(=O)Nc3cc(C(=O)Nc4ccc(S(=O)(=O)O)c5cc(S(=O)(=O)O)cc(S(=O)(=O)O)c45)ccc3C)c2)c1: inactive
- CC[C@@H]1C=C/C=C/C[C@H](C)[C@@H](O)[C@](C)(O)C(=O)[C@H](C)[C@@H](O)[C@H](C)C(=O)[C@H](C)[C@@H](O)[C@H](C)/C=C/C(=O)O[C@H]2[C@@H](C)[C@@H](CC1)O[C@@]1(CC[C@@H](C)[C@@H](C[C@H](C)O)O1)[C@@H]2C: inactive
- O=C1C(Cl)=C(Cl)C(=O)C(Cl)=C1Cl: active
